- Tested on: Staphylococcus aureus MW2 (mecA+)
- assay remarks: normalized DsRed fluorescence (growth of mecA+ strain) (fraction of control range); higher = more growth of mecA+ strain
- particulars: compound concentration: 150 uM; cefoxitin: subinhibitory; fluorescent label: DsRed
Counter-ions that a name gives are not always drawn.
Below, each entry is listed alongside its reported normalized DsRed fluorescence.

| compound | normalized DsRed fluorescence |
| --- | --- |
| CC(C)Cc1ccc(C(C)C(=O)O)cc1 (stereo not given) | 0.294 |
| COCCOC(=O)C1=C(C)NC(C)=C(C(=O)OC(C)C)C1c1cccc([N+](=O)[O-])c1 (stereo not given) | 0.85 |
| CN(C)CCc1c[nH]c2ccc(CS(=O)(=O)N3CCCC3)cc12 | 1 |
| O=NN(CCCl)C(=O)NCCCl | 0.898 |
| CCOC(=O)[C@H](CCc1ccccc1)N[C@@H](C)C(=O)N1Cc2ccccc2C[C@H]1C(=O)O | 0.737 |
| CN1[C@@H]2CC[C@H]1C[C@@H](OC(=O)c1c[nH]c3ccccc13)C2 [Tropisetron] | 0.582 |
| NCCCC[C@H](N[C@@H](CCc1ccccc1)C(=O)O)C(=O)N1CCC[C@H]1C(=O)O | 0.642 |
| NS(=O)(=O)c1cc2c(cc1Cl)NC(C(Cl)Cl)NS2(=O)=O (stereo not given) | 0.814 |
| COc1cc2nccc(Oc3ccc(NC(=O)NC4CC4)c(Cl)c3)c2cc1C(N)=O [E7080 (Lenvatinib)] | 0.638 |
| CN(C)CC/C=C1/c2ccccc2COc2ccc(CC(=O)O)cc21 [Olopatadine hydrochloride (Opatanol)] | 0.587 |
| COc1cc(C2Oc3ccc(C4Oc5cc(O)cc(O)c5C(=O)C4O)cc3OC2CO)ccc1O (stereo not given) [Silymarin (Silybin B)] | 0.987 |
| CCOC(=O)C1=C(COCCN)NC(C)=C(C(=O)OC)C1c1ccccc1Cl (stereo not given) | 1.06 |
| CC(=O)Nc1c(I)c(NC(C)=O)c(I)c(C(=O)O)c1I | 1.13 |
| NC(=O)c1cccnc1 [Nicotinamide (Niacinamide)] | 0.458 |
| O=S(=O)(O)NC1CCCCC1 | 0.493 |
| Nc1nc2[nH]cnc2c(=S)[nH]1 | 1.33 |
| CC(=O)S[C@@H]1CC2=CC(=O)CC[C@]2(C)[C@H]2CC[C@@]3(C)[C@@H](CC[C@@]34CCC(=O)O4)[C@H]12 | 0.584 |
| Clc1ccc(CSC(Cn2ccnc2)c2ccc(Cl)cc2Cl)cc1 (stereo not given) | 0.00806 |
| CCN1CC(CCN2CCOCC2)C(c2ccccc2)(c2ccccc2)C1=O (stereo not given) | 0.634 |
| CC(=O)O[C@]1(C(C)=O)CC[C@H]2[C@@H]3C=C(Cl)C4=CC(=O)[C@@H]5C[C@@H]5[C@]4(C)[C@H]3CC[C@@]21C | 0.593 |

---

Below, each entry is listed alongside its reported normalized GFP fluorescence.
- System: Staphylococcus aureus MW2 delta-mecA (mecA-)
- assay remarks: normalized GFP fluorescence (growth of mecA- strain) (fraction of control range); higher = more growth of mecA- strain
- particulars: compound concentration: 150 uM; cefoxitin: subinhibitory; fluorescent label: GFP
Counter-ions that a name gives are not always drawn.

| compound | normalized GFP fluorescence |
| --- | --- |
| N#C[C@@H]1CCCN1C(=O)CNC12CC3CC(CC(O)(C3)C1)C2 [Vildagliptin (LAF-237)] | 0.68 |
| O=C(O)COCCN1CCN(C(c2ccccc2)c2ccc(Cl)cc2)CC1 (stereo unspecified) | 0.0457 |
| O=C(O)CCC(=O)Nc1ccc(S(=O)(=O)Nc2nccs2)cc1 | 0.332 |
| Nc1nnc(-c2cccc(Cl)c2Cl)c(N)n1 [Lamotrigine] | -0.0077 |
| COCCCOc1cc(C[C@@H](C[C@H](N)[C@@H](O)C[C@H](C(=O)NCC(C)(C)C(N)=O)C(C)C)C(C)C)ccc1OC | 0.131 |
| CC(C)(C)NC[C@H](O)COc1ccccc1C1CCCC1 | 0.435 |
| CN(CCOc1ccc(CC2SC(=O)NC2=O)cc1)c1ccccn1 (stereo unspecified) | 0.341 |
| O=C1c2cccc3c2[C@H](CCC3)CN1[C@@H]1CN2CCC1CC2 [Palonosetron HCl] | 0.203 |
| C[C@H](NCc1ccc(OCc2cccc(F)c2)cc1)C(N)=O | 0.957 |
| C[N+](C)(C)C[C@H](O)CC(=O)[O-] [L-carnitine (Levocarnitine)] | 0.171 |
| CN1C2=CC(=O)/C(=N\NC(N)=O)C=C2CC1S(=O)(=O)O (stereo unspecified) [Carbazochrome sodium sulfonate] | 0.171 |
| CC(=O)S[C@@H]1CC2=CC(=O)CC[C@]2(C)[C@H]2CC[C@@]3(C)[C@@H](CC[C@@]34CCC(=O)O4)[C@H]12 | 0.734 |
| c1ccc(CC2=NCCN2)cc1 | 0.234 |
| CNC(=C[N+](=O)[O-])NCCSCc1ccc(CN(C)C)o1 | 0.32 |
| Nc1ccc(S(=O)(=O)Nc2ccccn2)cc1 | 0.364 |
| CC(C)(C)NC[C@H](O)COc1nsnc1N1CCOCC1 | 0.208 |
| COc1ccc2[nH]c([S@@+]([O-])Cc3ncc(C)c(OC)c3C)nc2c1 | 0.281 |
| CCCNCC(O)COc1ccccc1C(=O)CCc1ccccc1 (stereo unspecified) | 0.19 |
| CN/C(=N\CCSCc1nc[nH]c1C)NC#N | 0.567 |
| CC(=O)OCC(=O)[C@@]1(O)CC[C@H]2[C@@H]3CCC4=CC(=O)CC[C@]4(C)[C@@]3(F)[C@@H](O)C[C@@]21C | 0.287 |
| S=c1[nH]cnc2nc[nH]c12 | 0.195 |
| O=C(O)C1(C(=O)O)CCC1.[NH2-].[NH2-].[Pt+2] | 0.26 |
| CC(C)NCC(O)c1ccc(NS(C)(=O)=O)cc1 (stereo unspecified) | 0.417 |
| CC(=O)NCCCS(=O)(=O)O | 0.628 |
| CC(=O)c1ccc(S(=O)(=O)NC(=O)NC2CCCCC2)cc1 | 0.35 |
| CC(=O)N(CC(O)CO)c1c(I)c(C(=O)NCC(O)CO)c(I)c(C(=O)NCC(O)CO)c1I (stereo unspecified) | 0.415 |
| O=C1CCC(N2C(=O)c3ccccc3C2=O)C(=O)N1 (stereo unspecified) | 0.261 |
| CCN(CC)C(=O)C1(c2ccccc2)CC1CN (stereo unspecified) | 0.155 |
| Cc1c(OCC(F)(F)F)ccnc1C[S@@+]([O-])c1nc2ccccc2[nH]1 | 0.348 |
| Cc1ccc(NC(=O)c2ccc(CN3CCN(C)CC3)cc2)cc1Nc1nc(-c2cccnc2)cs1 [Masitinib (AB1010)] | 0.0914 |
| Cn1c(=O)c2c(ncn2C)n(C)c1=O | 0.319 |
| Cc1oncc1C(=O)Nc1ccc(C(F)(F)F)cc1 | 0.0504 |
| CCOC(=O)[C@H](CCc1ccccc1)N[C@@H](C)C(=O)N1[C@H](C(=O)O)C[C@H]2CCCC[C@@H]21 | 0.598 |
| OC[C@H]1O[C@H]([S-])[C@H](O)[C@@H](O)[C@@H]1O.[Au+] | 0.232 |
| NCC(=O)CCC(=O)O | 0.315 |
| C[C@H](Cc1cc2c(c(C(N)=O)c1)N(CCCO)CC2)NCCOc1ccccc1OCC(F)(F)F [Silodosin (Rapaflo)] | 0.269 |
| c1cnc2cc3c(cc2n1)[C@@H]1CNC[C@H]3C1 [Varenicline tartrate] | 0.504 |
| CCC(=O)OCC(=O)[C@@]1(OC(=O)CC)[C@@H](C)C[C@H]2[C@@H]3CCC4=CC(=O)C=C[C@]4(C)[C@@]3(Cl)[C@@H](O)C[C@@]21C | 0.322 |
| COc1cc2nccc(Oc3ccc(NC(=O)Nc4cc(C)on4)c(Cl)c3)c2cc1OC [Tivozanib (AV-951)] | 0.445 |
| CC1(C)O[C@@H]2[C@@H](CO[C@@]3(COS(N)(=O)=O)OC(C)(C)O[C@@H]23)O1 | 0.798 |
| C=CC(N)CCC(=O)O (stereo unspecified) | 0.441 |

---

- System: Staphylococcus aureus MW2 delta-mecA (mecA-)
- assay remarks: normalized GFP fluorescence (growth of mecA- strain) (fraction of control range); higher = more growth of mecA- strain
- particulars: compound concentration: 150 uM; cefoxitin: subinhibitory; fluorescent label: GFP
Would you please tag the item met when its normalized GFP fluorescence is 0.03 or above, and not met when it is below?

| compound | group |
| --- | --- |
| CCC1=C[C@@H]2CN(C1)Cc1c([nH]c3ccccc13)[C@@](C(=O)OC)(c1cc3c(cc1OC)N(C)[C@H]1[C@@](O)(C(=O)OC)[C@H](OC(C)=O)[C@]4(CC)C=CCN5CC[C@]31[C@@H]54)C2 | met |
| Cc1cc(/C=C/c2ccc3cc(N(C)C)ccc3[n+]2C)c(C)n1-c1ccccc1 | not met |
| O=C(O)c1cc(/N=N/c2ccc(S(=O)(=O)Nc3ccccn3)cc2)ccc1O | met |
| C[C@H]1[C@H](NC(=O)/C(=N\OC(C)(C)C(=O)O)c2csc(N)n2)C(=O)N1S(=O)(=O)O | met |
| CN1CCN(CC/C=C2/c3ccccc3Sc3ccc(S(=O)(=O)N(C)C)cc32)CC1 | not met |
| CC1=CC(=O)c2ccccc2C1=O | met |
| Clc1ccc(COC(Cn2ccnc2)c2ccc(Cl)cc2Cl)cc1 (stereo not drawn) [Econazole nitrate (Spectazole)] | not met |
